Every entry's value here was drawn from the RNAGym collection of RNA variant scans (doi:10.7554/elife.90254).

B1: OR4K15 (parent)
chain: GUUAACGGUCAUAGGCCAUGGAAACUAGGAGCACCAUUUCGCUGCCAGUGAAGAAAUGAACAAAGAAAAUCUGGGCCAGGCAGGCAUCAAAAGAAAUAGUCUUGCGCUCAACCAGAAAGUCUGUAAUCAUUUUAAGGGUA

Variants of: B1
Experiment: self-cleavage, relative activity (ratio to wild type); higher = more cleavage; in vitro, sequencing; the parent is a self-cleaving ribozyme
Quick rule: self-cleavage of at least 1 means fulfilled, below that means not fulfilled.

{"mutant-id": "A82U A129G", "group": "not fulfilled"}
{"mutant-id": "U103G G137A", "group": "not fulfilled"}
{"mutant-id": "A69G U133C", "group": "fulfilled"}
{"mutant-id": "A24U U43A", "group": "fulfilled"}
{"mutant-id": "A116G U139C", "group": "fulfilled"}
{"mutant-id": "C34U U87C", "group": "fulfilled"}
{"mutant-id": "A129G G137C", "group": "fulfilled"}
{"mutant-id": "A18U A96U", "group": "fulfilled"}
{"mutant-id": "A4G A95G", "group": "fulfilled"}
{"mutant-id": "U37G A55G", "group": "fulfilled"}
{"mutant-id": "A96G U108A", "group": "not fulfilled"}
{"mutant-id": "A52C A68G", "group": "not fulfilled"}
{"mutant-id": "A36G U49A", "group": "fulfilled"}
{"mutant-id": "U2C U39C", "group": "not fulfilled"}
{"mutant-id": "A47U", "group": "not fulfilled"}
{"mutant-id": "A95G U132C", "group": "fulfilled"}
{"mutant-id": "A114G U133C", "group": "not fulfilled"}
{"mutant-id": "A82U C101U", "group": "not fulfilled"}
{"mutant-id": "C6A C10U", "group": "not fulfilled"}
{"mutant-id": "A129G", "group": "not fulfilled"}
{"mutant-id": "A36C U127C", "group": "fulfilled"}
{"mutant-id": "A56G A114G", "group": "not fulfilled"}
